B1: Zinc finger homeobox protein 3, residues 2643 to 2698; numbered along this chain, Q15911 (parent)
chain: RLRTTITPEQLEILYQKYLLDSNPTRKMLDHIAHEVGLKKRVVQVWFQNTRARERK

variants of: B1; experiment: abundance fitness (aPCA) (normalised: wild type 0, dead -1); higher = more abundant; growth selection in yeast, the domain comes from the species named; conditions: Homo sapiens
Class definitions on abundance fitness: interval 1: < -0.2; interval 2: ≥ -0.2 and < 0.02; interval 3: ≥ 0.02

> print(dat)
    variant.spec  label.class
 1          K27C   interval 1
 2          E54S   interval 1
 3          K56P   interval 1
 4          R26D   interval 3
 5           I6T   interval 1
 6          H34C   interval 2
 7          R51S   interval 3
 8          L38V   interval 2
 9          L11R   interval 3
10           L2T   interval 3
11           I6N   interval 1
12          S22K   interval 2
13          Q44C   interval 2
14          T25H   interval 1
15          L19V   interval 2
16          Q44D   interval 3
17          Q16A   interval 3
18          S22N   interval 1
19           T7P   interval 3
